The origin of these recorded values is patent US20250340658A1.

target-under-test: T1, full length human GLP-1R with N-terminal FLAG tag and C-terminal GFP tag, on CHO cells (human, UniProt P43220 24-463)
T1 construct: whole, on cells; the cell line itself is tied to UniProt P43220; also called FLAG-GLP-1R-GFP; CHO-GLP-1R
procedure-summary: flow cytometry, expressing vs parent CHO cells
Method: GLP-1R IgG clones were tested in a binding assay coupled to flow cytometry analysis as follows: FLAG-GLP-1R-GFP expressing CHO cells (CHO-GLP-1R) and CHO-parent cells were incubated with 100 nM IgG for 1 h on ice, washed three times and incubated with Alexa 647 conjugated goat-anti-human antibody (1:200) (Jackson ImmunoResearch Laboratories, 109-605-044) for 30 min on ice, followed by three washes, centrifuging to pellet the cells between each washing step. […]
# MFI Ratio per record follows
// response body must contain only the number

Task: Value lookup for MFI Ratio; key = GLP1R-222-082 (antibody, V domains shown, IgG) VH: QVQLVESGGGVVQPGRSLRLSCAASGFTFSAYSMHWVRQAPGKGLEWVALISYDATNKYYADSVKGRFTISRDNSKNTLYLQMNSLRAEDTAVYYCAKHMSMQEGAVTGEFQAAKEFIAWLVKGRVRADLVGDAFDVWGQGTLVTVSS VL: QSVLTQPPSVSAAPGQKVTISCSGSSSNIGSKYVSWYQQLPGTAPKLLIYDNNKRPSGIPDRFSGSKSGTSATLGITGLQTGDEADYYCGTWDISPSAWVFGGGTKLTVL
Output: 711

Task: Item: GLP1R-222-014 (antibody, V domains shown, IgG) VH: QVQLVESGGGVVQPGRSLRLSCAASGFAFSNYGMHWVRQAPGKGLEWVSFISYDESNKYYADSVKGRFTISRDNSKNTLYLQMNNLRAEDTAVYYCAKHMSMQEGAVTGEWQAAKEFIAWLVKGRVRADLVGDAFDVWGQGTLVTVSS VL: QSVLTQPPSVSAAPGQKVTISCSGSSSNIGNHDVSWYQQLPGTAPKLLIYDNNKRHSGIPDRFSGSKSGTSATLGITGLQTGDEADYYCGTWDTSLSAGVFGGGTKLTVL
Output: 794

Task: Item: GLP1R-3 (antibody, human IgG2, lambda, V domains shown, full length human IgG2; also called GLP1R01-3) VH: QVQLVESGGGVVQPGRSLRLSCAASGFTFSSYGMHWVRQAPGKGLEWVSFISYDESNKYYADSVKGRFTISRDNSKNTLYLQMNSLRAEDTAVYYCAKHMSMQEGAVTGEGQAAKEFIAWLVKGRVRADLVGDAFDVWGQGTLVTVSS VL: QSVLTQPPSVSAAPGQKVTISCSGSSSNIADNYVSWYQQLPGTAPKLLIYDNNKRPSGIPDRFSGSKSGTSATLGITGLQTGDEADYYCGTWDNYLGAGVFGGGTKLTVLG
Output: 740
